tested on: NOMO1; assay: cell viability relative to DMSO control; higher = less cytotoxic; conditions: RPMI 5 mM glucose + 10% dialyzed FBS; 48 h; 46.1 µM
result-type: cell viability

Before answering, review these 6 worked examples.
C[C@@H](NC1=CC=CC=C1C(O)=O)C/2=C/C(=C\N3C(=O)/C=C(\N=C23)N4CCOCC4)C | 7.82%
CN1[C@@H]2CC(OC(=O)[C@@H](CO)c3ccccc3)C[C@H]1[C@H]1O[C@H]12 (some centres not stated) | 89.8%
CC[C@H](CC#N)OC(=O)N[C@@H](C)c1cccc(NC(=O)Nc2ccc(-c3cnco3)c(OC)c2)c1 | 35.8%
O=C(NOCC(O)CO)c1cc(Br)c(F)c(F)c1Nc1ccc(I)cc1F (configuration not stated) | 24.6%
NC1(Cc2ccc(Cl)cc2)CCN(c2ncnc3[nH]ccc23)CC1 | 17.7%
FC(F)(F)c1ccc(/C=C/c2nc(COc3ccc(CCCCn4ccnn4)cc3)co2)cc1 | 19.9%

With those in mind, consider the next compound.
*Q* What cell viability value was documented for this compound, CC1=CC=CC=C1N2\C(=N/C3=C(C(=CC=C3)C)C2=O)C[N]4C=NC5=C4N=CN=C5N ?
*A* 61.1%

====

Examples of compounds with documented AUC of viability dose-response curve follow.
system: NOMO1; assay: AUC of viability dose-response curve (% viability x log10 dose units); higher = less sensitive; conditions: HPLM + 10% dialyzed FBS; 48 h
// return a plain number; no unit text

Cn1cc(CNCC2CCN(c3ncc(C(=O)NO)cn3)CC2)c2ccccc21 | 268
CC(N[C@H]1C[C@@H]1c1ccccc1)c1ccc2c(c1)OCCO2 (stereo partly specified) | 434
OC[C@H]1O[C@H](C[C@@H]1O)[N]2C=NC3=C2\N=C/NC[C@H]3O | 444

*Q* Which measured AUC of viability dose-response curve belongs to CCC[C@H](NC(=O)/C(C#N)=C/c1cccc(Br)n1)c1ccccc1 , tested on NOMO1?
*A* 437

*Q* Lookup Cc1ccc(NC(=O)c2ccc(CN3CCN(C)CC3)cc2)cc1Nc1nc(-c2cccnc2)cs1
*A* 417

*Q* Next compound up: CN[S+](=O)([O-])Cc1ccc2[nH]cc(CCN(C)C)c2c1
*A* 454

*Q* What do you get for O=NN(CCCl)C(=O)NC1CCCCC1 ?
*A* 474

*Q* Same for O=C(OC)[C@]12CC[C@@]3(C)[C@]4(C)CC[C@H]5[C@@](C)(C)C(=O)C(=C[C@]5(C)C4=CC(=O)[C@@H]3[C@@H]2C[C@](C)(C)CC1)C#N
*A* 408

*Q* What do you have for CC(C)N(CCNC(=O)CN1CCCC1=O)C(C)C ?
*A* 430

*Q* Entry to check: Cn1c(=O)c2c(ncn2C)n(C)c1=O.O=C(O)CC(O)(CC(=O)O)C(=O)O
*A* 439

*Q* Likewise for C=C(C)[C@@H]1CC[C@]2(C(=O)O)CC[C@]3(C)[C@H](CC[C@@H]4[C@@]5(C)CC[C@H](O)C(C)(C)[C@@H]5CC[C@]43C)[C@@H]12 ?
*A* 452

====

system: NOMO1; experiment: cell viability relative to DMSO control; higher = less cytotoxic; details: HPLM + 10% dialyzed FBS; 48 h; 0.000781 µM
result-type: cell viability (%)
Reply numerically in %, unit not repeated.

CN(C)c1ccc(O)c2c1C[C@H]1C[C@H]3[C@H](N(C)C)C(O)=C(C(N)=O)C(=O)[C@@]3(O)C(O)=C1C2=O | 103
O=C(NOCC(O)CO)c1cc(Br)c(F)c(F)c1Nc1ccc(I)cc1F (stereo unspecified) | 65.8
CN(CC#C)C/C1=C/C2=CC=CC=C2OC3=CC=CC=C13 | 82.4
CNC(=O)c1ccc(-c2cnc3ncc(Cc4ccc5ncccc5c4)n3n2)cc1F | 113
Cc1nc(NC(=O)N2CCC[C@H]2C(N)=O)sc1-c1ccnc(C(C)(C)C(F)(F)F)c1 | 99.5

*Q* Query: cell viability; subject: COC1CCC(CC1)N(C(=O)C2CCC(C)CC2)C3=C(SC(=C3)\C4=C\CCCC4)C(O)=O (stereo unspecified)
*A* 120

*Q* # iterate: Oc1ccc2c3c1O[C@H]1c4[nH]c5c(c4C[C@@]4(O)[C@@H](C2)N(CC2CC2)CC[C@]314)C[C@@]1(O)[C@H]2Cc3ccc(O)c4c3[C@@]1(CCN2CC1CC1)[C@H]5O4
*A* 92.7

*Q* Same question, CCC1(C)CC(=O)NC1=O (stereo unspecified) this time
*A* 114

====

Recorded cell viability by entry
tested on: P12-Ichikawa; assay: cell viability relative to DMSO control; higher = less cytotoxic; conditions: HPLM + 10% dialyzed FBS; 48 h; 5.12 µM
Give the quantity in %, number only.

*Q* Request the reported cell viability associated with CC[C@H](CC#N)OC(=O)N[C@@H](C)c1cccc(NC(=O)Nc2ccc(-c3cnco3)c(OC)c2)c1
*A* 49.8

====

tested on: P12-Ichikawa; assay: cell viability relative to DMSO control; higher = less cytotoxic; conditions: HPLM + 10% dialyzed FBS; 48 h; 0.00702 µM
Catalogue of cell viability values
Your answer is read as %, so omit the unit and give the number.

As a guide, the following entries are already answered.
O=NN(CCCl)C(=O)NCCCl | 108
CC(C)n1nc(-c2cc3cc(O)ccc3[nH]2)c2c(N)ncnc21 | 112
O=C(NOCC(O)CO)c1cc(Br)c(F)c(F)c1Nc1ccc(I)cc1F (stereo unspecified) | 81.7
N=C(CCSCc1csc(N=C(N)N)n1)N[S+](N)(=O)[O-] | 103
COC1=CC2=NC=CC(=C2C=C1)OC3=CN=C(NC(=O)C/4=C(C)/N(CC(C)(C)O)N(C4=O)C5=CC=CC=C5)C=C3 | 87.6

*Q* What is its cell viability for P12-Ichikawa? Entry: CC(=O)O[C@H]1C(=O)[C@]2(C)[C@@H](O)C[C@H]3OC[C@@]3(OC(C)=O)C2[C@H](OC(=O)C4=CC=CC=C4)[C@]5(O)C[C@H](OC(=O)[C@H](O)[C@@H](NC(=O)C6=CC=CC=C6)C7=CC=CC=C7)\C(=C1/C5(C)C)C (stereo partly specified)
*A* 35.2

====

tested on: P12-Ichikawa; assay: cell viability relative to DMSO control; higher = less cytotoxic; details: RPMI 5 mM glucose + 10% FBS; 48 h; 1.71 µM
result-type: cell viability (%)
Report the figure in % without appending any unit label.

Answered cases to consult:
C[C@H]1[C@H](NC(=O)/C(=N/OC(C)(C)C(=O)O)c2csc(N)n2)C(=O)N1[S+](=O)([O-])O | 110
CC(C)OC(=O)OCOP(=O)(CO[C@H](C)Cn1cnc2c(N)ncnc21)OCOC(=O)OC(C)C.O=C(O)C=CC(=O)O | 129
O=C(NOCC(O)CO)c1cc(Br)c(F)c(F)c1Nc1ccc(I)cc1F (centres undefined) | 62.5
O=C(OC)[C@]12CC[C@@]3(C)[C@]4(C)CC[C@H]5[C@@](C)(C)C(=O)C(=C[C@]5(C)C4=CC(=O)[C@@H]3[C@@H]2C[C@](C)(C)CC1)C#N | 102
CC(C)NCC(O)COc1ccc(COCCOC(C)C)cc1 (centres undefined) | 110
Cc1cn2c(-c3cn[nH]c3)cnc2c(Nc2ccc(C(=O)N3CCNCC3)cc2F)n1 | 96.9
C[C@](O)(COc1ccc(C#N)cc1)C(=O)Nc1ccc(C#N)c(C(F)(F)F)c1 | 86.7
CCc1cncnc1N1CCN(Cc2nc3cc(C(F)(F)F)ccc3[nH]2)CC1 | 101
Cc1ccccc1C(C(=O)NC1CCCCC1)N(C(=O)Cn1ccnc1C)c1cccc(F)c1 (centres undefined) | 102
C[C@H](NC(=O)/C(C#N)=C/c1cccc(Br)n1)c1ccccc1 | 88.3

*Q* Any idea what its cell viability is? The compound is CC\1=C(C(\N=C(/N1)C2=CC(=NC=C2)Cl)C3=C(F)C=C(Cl)C=C3)/C(=O)NC4=C(F)C=C5[NH]N=CC5=C4 (centres undefined)
*A* 113

====

system: SEM cells; assay: cell viability relative to DMSO control; higher = less cytotoxic; settings: RPMI 5 mM glucose + 10% dialyzed FBS; 48 h; 0.569 µM
result-type: cell viability (%)
Express it in %; write the number only.

CC1(C)CCC[C@]2(C)[C@H]3CC(=O)O[C@]3(C)CC[C@@H]12 | 121
C[C@]\12CC[C@H](O)CC1=C/CC3C2CC[C@@]\4(C)C3C\C=C4[N]5C=NC6=C5C=CC=C6 (stereo not given in full) | 108
C[C@@H](NC1=CC=CC=C1C(O)=O)C/2=C/C(=C\N3C(=O)/C=C(\N=C23)N4CCOCC4)C | 70.3
CC(C)c1cnn2c(NCc3ccccc3)cc(N[C@@H](CO)[C@H](O)CO)nc12 | 80.7
[NH2][Pt]1([NH2])[O]CC(=O)[O]1 | 76.9
O=C([O-])C(O)Cc1ccc(O)c(O)c1 (stereo not given) | 69
CC1=CC=CC=C1N2\C(=N/C3=C(C(=CC=C3)C)C2=O)C[N]4C=NC5=C4N=CN=C5N | 68.1
c1cncc(CN2CCC(n3ncc4c(N5CCOCC5)nc(-c5ccc6[nH]ccc6c5)nc43)CC2)c1 | 61.9
CC(=O)O[C@H]1C(=O)[C@]2(C)[C@@H](O)C[C@H]3OC[C@@]3(OC(C)=O)C2[C@H](OC(=O)C4=CC=CC=C4)[C@]5(O)C[C@H](OC(=O)[C@H](O)[C@@H](NC(=O)C6=CC=CC=C6)C7=CC=CC=C7)\C(=C1/C5(C)C)C (stereo not given in full) | 22.8
CCN(CC)CC#CCOC(=O)C(O)(c1ccccc1)C1CCCCC1 (stereo not given) | 142

*Q* Fill blank: measured cell viability of the compound CN(C)c1ccc(O)c2c1C[C@H]1C[C@H]3[C@H](N(C)C)C(O)=C(C(N)=O)C(=O)[C@@]3(O)C(O)=C1C2=O is ____.
*A* 115

*Q* Same again, this time with CCCC1=NC(=C2[N]1NC(=N\C2=O)/C3=CC(=CC=C3OCC)[S+]([O-])(=O)N4CCN(CC)CC4)C
*A* 140

*Q* Would you kindly repeat that for C/C=C(/C)C(=O)O[C@H]1C(C)=C2[C@H]([C@@H]1OC(=O)CCCCCCC)[C@@](C)(OC(C)=O)C[C@H](OC(=O)CCC)[C@@]1(O)[C@H]2OC(=O)[C@@]1(C)O ?
*A* 7.63

*Q* Here is the next compound: Cl.Cl.Cl.O[C@@H](COc1cccc2ncccc12)CN1CCN([C@@H]2c3ccccc3[C@@H]3[C@H](c4ccccc42)C3(F)F)CC1
*A* 86.9

*Q* Let us now turn to CNC1CCC(N(Cc2cccc(-c3ccncc3)c2)C(=O)c2sc3ccccc3c2Cl)CC1 (stereo not given)
*A* 81.6

*Q* Likewise for COC1=NC(=NC(=C1N\C2=N\CCN2)Cl)C ?
*A* 101

*Q* Similarly, CC(NC1=CC=CC=C1)C\2=C\C(=C/N3C(=O)\C=C(/N=C23)N4CCOCC4)C (stereo not given) ?
*A* 101

*Q* Now consider NC[C@H]1CC[C@H](C(=O)O)CC1 and answer again.
*A* 99.9

*Q* // next record COc1c(C)cnc(Cn2cnc3c(Cl)nc(N)nc32)c1C
*A* 52.9

*Q* How about this compound: COC1=CC=CC2=C1C(=NC(=N2)C3=CC=CS3)NN4C(=O)\C=C(C)/C4=O
*A* 57.4

Data origin: the supplement of paper PMC11451515
